# target.or.test.system: Acetylcholinesterase (Electrophorus electricus, UniProt O42275)
# Sequence (O42275 whole entry): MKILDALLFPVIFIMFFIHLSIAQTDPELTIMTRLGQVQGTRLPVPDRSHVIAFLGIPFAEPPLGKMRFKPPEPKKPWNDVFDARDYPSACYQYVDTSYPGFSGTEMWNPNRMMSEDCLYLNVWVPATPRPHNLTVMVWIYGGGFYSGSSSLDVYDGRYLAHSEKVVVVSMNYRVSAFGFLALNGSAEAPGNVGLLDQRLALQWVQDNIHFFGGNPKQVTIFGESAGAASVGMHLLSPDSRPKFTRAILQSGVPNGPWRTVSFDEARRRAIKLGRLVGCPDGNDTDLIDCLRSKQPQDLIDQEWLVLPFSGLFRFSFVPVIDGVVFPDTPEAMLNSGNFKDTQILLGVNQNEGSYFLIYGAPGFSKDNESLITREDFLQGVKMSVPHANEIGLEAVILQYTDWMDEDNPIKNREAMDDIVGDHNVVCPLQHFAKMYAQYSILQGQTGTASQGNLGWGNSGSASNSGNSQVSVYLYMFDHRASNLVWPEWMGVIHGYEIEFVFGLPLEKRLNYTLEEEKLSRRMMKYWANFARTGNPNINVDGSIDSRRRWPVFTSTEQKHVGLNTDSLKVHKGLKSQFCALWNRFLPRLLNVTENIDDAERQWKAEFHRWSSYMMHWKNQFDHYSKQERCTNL
# test.parameters: read-out: IC50
# Description: Inhibition of electric eel AChE by Ellman's method
Threshold 0.5 µM. IC50 below it: 1 (yes). IC50 at it or above: 0 (no).

Example entries and their recorded answers appear below.
c1ccc2c(=NCCCCCCC/N=c3\c4ccccc4nc4n3CCCCCC4)n3c(nc2c1)CCCCCC3    1 (yes)
CC(C)CC(=O)N(CCCCN=c1c2ccccc2nc2n1CCCCCC2)CCCN=c1c2ccccc2nc2n1CCCCCC2    0 (no)
CN(CCCCN=c1c2ccccc2nc2n1CCC2)CCCN=c1c2ccccc2nc2n1CCC2    0 (no)
CCC(=O)N(CCCCN=c1c2ccccc2nc2n1CCCCCC2)CCCN=c1c2ccccc2nc2n1CCCCCC2    1 (yes)
c1ccc2/c(=N\CCCCCCC/N=c3\c4ccccc4nc4n3CCC4)n3c(nc2c1)CCC3    1 (yes)
CC(C)(C)C(=O)N(CCCCN=c1c2ccccc2nc2n1CCCCCC2)CCCN=c1c2ccccc2nc2n1CCCCCC2    0 (no)
CN(CCCN=c1c2ccccc2nc2n1CCC2)CCC/N=c1\c2ccccc2nc2n1CCC2    0 (no)
CN(CCCN=c1c2ccccc2nc2n1CCCCCC2)CCC/N=c1\c2ccccc2nc2n1CCCCCC2    1 (yes)

Moving on to the next compound.
Enquiry: Determine whether this compound shows IC50 lower than 0.5 µM (ties excluded): CCC(=O)N(CCCCN=c1c2ccccc2nc2n1CCC2)CCCN=c1c2ccccc2nc2n1CCC2
Return: 1 (yes)

----------
So I've got IC50 readings for Cholinesterase (Equus caballus, UniProt P81908), take a look.
Give a bare numeral; the unit nM is implied.

As a guide, the following entries are already answered.
CC(=O)N(CCCCN=c1c2ccccc2nc2n1CCCCCC2)CCCN=c1c2ccccc2nc2n1CCCCCC2    43.1
CC(C)CC(=O)N(CCCCN=c1c2ccccc2nc2n1CCCCCC2)CCCN=c1c2ccccc2nc2n1CCCCCC2    8.1
CCCCC(=O)N(CCCCN=c1c2ccccc2nc2n1CCCCCC2)CCCN=c1c2ccccc2nc2n1CCCCCC2    12.9
c1ccc(C/N=c2/c3ccccc3nc3n2CCC3)cc1    1900

Enquiry: Please state recorded IC50 (tested on Cholinesterase (Equus caballus, UniProt P81908)) of CCC(=O)N(CCCCN=c1c2ccccc2nc2n1CCC2)CCCN=c1c2ccccc2nc2n1CCC2
Sequence (P81908 whole entry): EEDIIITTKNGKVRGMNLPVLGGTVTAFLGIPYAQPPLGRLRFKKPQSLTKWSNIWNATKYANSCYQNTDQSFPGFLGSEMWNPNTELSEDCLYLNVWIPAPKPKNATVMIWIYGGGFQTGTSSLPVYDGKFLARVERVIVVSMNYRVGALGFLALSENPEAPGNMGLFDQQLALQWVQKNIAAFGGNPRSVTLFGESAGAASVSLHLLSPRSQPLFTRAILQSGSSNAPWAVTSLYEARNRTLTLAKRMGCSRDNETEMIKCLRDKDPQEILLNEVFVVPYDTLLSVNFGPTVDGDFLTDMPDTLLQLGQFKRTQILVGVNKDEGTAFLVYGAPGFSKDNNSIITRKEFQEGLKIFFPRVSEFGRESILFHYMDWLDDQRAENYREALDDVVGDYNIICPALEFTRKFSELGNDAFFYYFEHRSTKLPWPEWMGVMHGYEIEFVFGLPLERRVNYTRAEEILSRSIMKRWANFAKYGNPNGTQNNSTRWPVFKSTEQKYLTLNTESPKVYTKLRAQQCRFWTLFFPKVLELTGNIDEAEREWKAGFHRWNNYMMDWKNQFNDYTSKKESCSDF
Return: 5.9

----------
# target.or.test.system: Acetylcholinesterase (Electrophorus electricus, UniProt O42275)
# test.parameters: read-out: IC50
readout.label: log10 IC50 (log10 of the value in nM)
Heads up, the numbers here are log10 of IC50 in nM units.

c1ccc2c(=NCCCCCCCCN=c3c4ccccc4nc4n3CCC4)n3c(nc2c1)CCC3    1.76

Enquiry: Consider the compound shown here: CC(=O)N(CCCCN=c1c2ccccc2nc2n1CCCCCC2)CCCN=c1c2ccccc2nc2n1CCCCCC2 What is its recorded log10 IC50?
Return: 2.25

Enquiry: Consider the compound shown here: CC(C)CCC(=O)N(CCCCN=c1c2ccccc2nc2n1CCCCCC2)CCCN=c1c2ccccc2nc2n1CCCCCC2 What is its recorded log10 IC50?
Return: 2.90

Enquiry: Consider the compound shown here: c1ccc(C/N=c2/c3ccccc3nc3n2CCC3)cc1 What is its recorded log10 IC50?
Return: 4.14

Enquiry: Consider the compound shown here: CC(=O)N(CCCN=c1c2ccccc2nc2n1CCCCCC2)CCC/N=c1\c2ccccc2nc2n1CCCCCC2 What is its recorded log10 IC50?
Return: 1.69
